# measured target: Ribosomal protein S6 kinase alpha-3 (Homo sapiens);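 also: reported value is a mean inhibition figure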
# reported conditions: at 0.1 µM
parameter: inhibition (%)

- smi: "CN(c1ccc(NC(=O)Nc2c(Cl)cccc2Cl)cc1)c1ccnc(Nc2cccc(CS(C)(=O)=O)c2)n1"
  unit tag: "%"
  readout number: 2.08
- smi: "Fc1ccc(-c2ncn(CCCN3CCOCC3)c2-c2ccncc2)cc1"
  unit tag: "%"
  readout number: 0.33
- smi: "C#Cc1cccc(Nc2ncnc3ccc(OCCCCNCCS(C)(=O)=O)cc23)c1"
  unit tag: "%"
  readout number: 2.14
- smi: "c1ccc(-c2n[nH]cc2-c2ccnc(-c3ccc(OCCN4CCOCC4)cc3)c2)nc1"
  unit tag: "%"
  readout number: 0.55
- smi: "COc1cccc(/C=N/Nc2ncnc3c2cnn3-c2cccc(OC)c2)c1"
  unit tag: "%"
  readout number: 0.86
- smi: "COc1cc(Nc2ncc(-c3ccccc3)o2)cc(OC)c1OC"
  unit tag: "%"
  readout number: 0.02
- smi: "NCc1ccc(-n2c(-c3nonc3N)nc3cnccc32)cc1"
  unit tag: "%"
  readout number: 43.4
- smi: "COc1cc2ncn(-c3cc(OCc4ccccc4C(F)(F)F)c(C(C)=O)s3)c2cc1OC"
  unit tag: "%"
  readout number: 0.97
- smi: "CCN(CC)Cc1ccc(Nc2nccc(-c3cnn4ncccc34)n2)cc1"
  unit tag: "%"
  readout number: -0.63
- smi: "Fc1ccc(-c2nc3n(c2-c2ccncc2)CCS3)cc1"
  unit tag: "%"
  readout number: 1.5

* * *

# measured target: Calcium/calmodulin-dependent protein kinase type IV (Homo sapiens) (UniProt Q16566);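 also: each value is the mean of the measured CAMK4 inhibition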
# Sequence (Q16566 whole entry): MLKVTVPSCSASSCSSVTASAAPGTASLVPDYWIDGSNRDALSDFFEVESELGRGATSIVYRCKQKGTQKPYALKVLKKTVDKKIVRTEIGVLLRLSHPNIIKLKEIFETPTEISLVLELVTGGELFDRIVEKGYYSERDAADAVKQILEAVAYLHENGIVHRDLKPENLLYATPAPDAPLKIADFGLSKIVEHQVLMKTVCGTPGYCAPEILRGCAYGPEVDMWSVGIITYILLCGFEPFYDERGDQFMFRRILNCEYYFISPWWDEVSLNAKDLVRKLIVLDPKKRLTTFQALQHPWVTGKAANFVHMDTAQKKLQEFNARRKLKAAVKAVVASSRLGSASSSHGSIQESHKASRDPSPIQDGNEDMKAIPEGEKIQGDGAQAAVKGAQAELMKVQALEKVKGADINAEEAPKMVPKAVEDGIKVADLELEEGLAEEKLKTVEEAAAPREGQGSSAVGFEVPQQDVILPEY
# reported conditions: at 1 µM

- molecule: "COc1cc(N2CCN(C(C)C)CC2)ccc1Nc1nc(Nc2ccc(F)cc2C(=O)NC[C@@H](O)CO)c2cc[nH]c2n1"
  unit tag: "%"
  inhibition: -0.93
- molecule: "C/C(Nc1ccc(S(N)(=O)=O)cc1)=C1/C(=O)Nc2ccccc21"
  unit tag: "%"
  inhibition: -0.89
- molecule: "N#Cc1ccc(Oc2nccc(-c3c(-c4ccc(F)cc4)ncn3C3CCNCC3)n2)cc1"
  unit tag: "%"
  inhibition: 6.38
- molecule: "NS(=O)(=O)c1ccc(N/N=C2\\C(=O)Nc3ccc(-c4cnco4)cc32)cc1"
  unit tag: "%"
  inhibition: -0.99
- molecule: "COc1ccc2cc(-c3c(-c4ccncc4)nc(-c4ccc([S+](C)[O-])cc4C)n3C)ccc2c1 (stereo not given)"
  unit tag: "%"
  inhibition: 1.17
- molecule: "O=C(Nc1ccc(Oc2ccc3[nH]c(NC(=O)c4ccccc4)nc3c2)cc1)Nc1cc(C(F)(F)F)ccc1F"
  unit tag: "%"
  inhibition: -0.86
- molecule: "Clc1ccc(CNc2nccc(-c3cnn4ncccc34)n2)cc1"
  unit tag: "%"
  inhibition: 1.7
- molecule: "CCS(=O)(=O)c1ccc(OC)c(Nc2ncc(-c3cccc(-c4ccccc4F)c3)o2)c1"
  unit tag: "%"
  inhibition: 1.5
- molecule: "NC(=O)Cc1ccccc1Oc1nccc(-c2c(-c3ccc(F)cc3)ncn2C2CCNCC2)n1"
  unit tag: "%"
  inhibition: -0.11
- molecule: "CN(C)c1ccc2c(c1)/C(=C/Nc1ccc(S(N)(=O)=O)cc1)C(=O)N2"
  unit tag: "%"
  inhibition: 0.42
- molecule: "CS(=O)(=O)CCNCc1ccc(-c2ccc3ncnc(Nc4ccc(OCc5ccccc5)c(Br)c4)c3c2)o1"
  unit tag: "%"
  inhibition: -2.06
- molecule: "CCc1cccc(CC)c1/C=C/c1cncc(C(=O)NC)c1"
  unit tag: "%"
  inhibition: 13.9
- molecule: "CCN(CC)Cc1ccc(Nc2nccc(-c3cnn4ncccc34)n2)cc1"
  unit tag: "%"
  inhibition: 0.34
- molecule: "NC(=O)c1ccc(Oc2nccc(-c3c(-c4ccc(F)cc4)ncn3C3CCNCC3)n2)cc1"
  unit tag: "%"
  inhibition: 2.66
- molecule: "O=C1Nc2ccc(I)cc2C1=Cc1cc(Br)c(O)c(Br)c1"
  unit tag: "%"
  inhibition: 4.99
- molecule: "COc1cc(Nc2ncc3c(C)nc(-c4cccc(Oc5ccccc5)c4)n3n2)cc(OC)c1OC"
  unit tag: "%"
  inhibition: 4.26
- molecule: "c1ccc(Oc2ccc(Nc3ncc(-c4ccccc4)o3)cc2)cc1"
  unit tag: "%"
  inhibition: 1.32
- molecule: "CN(C)CCOc1ccc(-c2cc(-c3ccc4c(c3)CCC4=NO)c(-c3ccncc3)o2)cc1"
  unit tag: "%"
  inhibition: 1.99
- molecule: "O=C(NCC1CC1)c1ccc(-c2cccc(C(=O)NC3CC3)c2)cc1"
  unit tag: "%"
  inhibition: 2
- molecule: "Fc1ccc(-c2nc3n(c2-c2ccncc2)CCS3)cc1"
  unit tag: "%"
  inhibition: 0.23

The reported measurements were obtained from ChEMBL document CHEMBL1961873.
